Source listed as paper PMC9457810.

I'd be grateful if you could share measured CC50 for these entries.
- System: THP-1 cell line
- protocol.details: In vitro cytotoxicity assessment in THP-1 cell line (MTT)
- Format: cell-based, human
- protocol.conditions: THP-1 cells, 48 h, MTT; at least three independent assays; read-out: Cytotoxicity CC50 ± SEM
Structures can show the parent of a compound that is named as a salt.
Give bare numbers, in µM.

Guide cases for CC50, answers given:
compound | unit.label | reported.measurement
Nc1ccn(C(=O)C2CCC3(CC2)OOC2(O3)C3CC4CC(C3)CC2C4)n1 (stereo not shown) [OZ2•HCl] | µM | 425
CS(=O)(=O)O.Nc1ccnn1C(=O)C1CCC2(CC1)OOC1(O2)C2CC3CC(C2)CC1C3 (stereo not shown) | µM | 336
Nc1ccn(C(=O)C2CCC3(CC2)OOC2(OO3)C3CC4CC(C3)CC2C4)n1 (stereo not shown) [T2•HCl] | µM | 444
Nc1ccn(C(=O)C2CCC3(CC2)OOC2(O3)C3CC4CC(C3)CC2C4)n1 (stereo not shown) [OZ2•TsOH] | µM | 479
Nc1ccn(C(=O)C2CCC3(CC2)OOC2(OO3)C3CC4CC(C3)CC2C4)n1 (stereo not shown) [T1•HCl] | µM | 529
Cl.Nc1ccnn1C(=O)C1CCC2(CC1)OOC1(O2)C2CC3CC(C2)CC1C3 (stereo not shown) [OZ1•HCl] | µM | 509
Nc1ccn(C(=O)C2CCC3(CC2)OOC2(O3)C3CC4CC(C3)CC2C4)n1 (stereo not shown) [OZ2] | µM | 202
Nc1ccnn1C(=O)C1CCC2(CC1)OOC1(OO2)C2CC3CC(C2)CC1C3 (stereo not shown) [T1•TsOH] | µM | 331

Now consider the entry below.
Identify measured CC50 corresponding to Nc1ccnn1C(=O)C1CCC2(CC1)OOC1(O2)C2CC3CC(C2)CC1C3 (stereo not shown)
510

###

- Test system: L. tropica promastigotes
- protocol.details: Leishmania promastigotes in vitro susceptibility (MTT), L. tropica
- Format: cell-based
- protocol.conditions: 48 h, at least three independent assays, read-out: Promastigotes Susceptibility IC50 ± SEM, L. tropica
Where a name gives a salt, the structure may show the parent alone.
endpoint.name: IC50

compound | endpoint.name | reported.measurement
Nc1ccn(C(=O)C2CCC3(CC2)OOC2(O3)C3CC4CC(C3)CC2C4)n1 (centres unmarked) [OZ2•TsOH] | IC50 | 260 µM

Below is a list of compounds. For each, state its recorded IC50.
1. Nc1ccnn1C(=O)C1CCC2(CC1)OOC1(OO2)C2CC3CC(C2)CC1C3 (centres unmarked)
2. Nc1ccn(C(=O)C2CCC3(CC2)OOC2(O3)C3CC4CC(C3)CC2C4)n1 (centres unmarked) [OZ2]
3. Cl.Nc1ccnn1C(=O)C1CCC2(CC1)OOC1(O2)C2CC3CC(C2)CC1C3 (centres unmarked) [OZ1•HCl]
4. Nc1ccnn1C(=O)C1CCC2(CC1)OOC1(O2)C2CC3CC(C2)CC1C3 (centres unmarked)
5. Nc1ccn(C(=O)C2CCC3(CC2)OOC2(OO3)C3CC4CC(C3)CC2C4)n1 (centres unmarked) [T2•HCl]
6. CS(=O)(=O)O.Nc1ccnn1C(=O)C1CCC2(CC1)OOC1(O2)C2CC3CC(C2)CC1C3 (centres unmarked)
7. Nc1ccn(C(=O)C2CCC3(CC2)OOC2(O3)C3CC4CC(C3)CC2C4)n1 (centres unmarked) [OZ2•HCl]

1. > 400 µM
2. 161 µM
3. 135 µM
4. 199 µM
5. 266 µM
6. 198 µM
7. > 400 µM
